Provenance of the data: ChEMBL document CHEMBL1153461

assayed_system: 1-phosphatidylinositol 4,5-bisphosphate phosphodiesterase gamma-1 (Rattus norvegicus) (UniProt P10686)
Sequence (P10686 whole entry): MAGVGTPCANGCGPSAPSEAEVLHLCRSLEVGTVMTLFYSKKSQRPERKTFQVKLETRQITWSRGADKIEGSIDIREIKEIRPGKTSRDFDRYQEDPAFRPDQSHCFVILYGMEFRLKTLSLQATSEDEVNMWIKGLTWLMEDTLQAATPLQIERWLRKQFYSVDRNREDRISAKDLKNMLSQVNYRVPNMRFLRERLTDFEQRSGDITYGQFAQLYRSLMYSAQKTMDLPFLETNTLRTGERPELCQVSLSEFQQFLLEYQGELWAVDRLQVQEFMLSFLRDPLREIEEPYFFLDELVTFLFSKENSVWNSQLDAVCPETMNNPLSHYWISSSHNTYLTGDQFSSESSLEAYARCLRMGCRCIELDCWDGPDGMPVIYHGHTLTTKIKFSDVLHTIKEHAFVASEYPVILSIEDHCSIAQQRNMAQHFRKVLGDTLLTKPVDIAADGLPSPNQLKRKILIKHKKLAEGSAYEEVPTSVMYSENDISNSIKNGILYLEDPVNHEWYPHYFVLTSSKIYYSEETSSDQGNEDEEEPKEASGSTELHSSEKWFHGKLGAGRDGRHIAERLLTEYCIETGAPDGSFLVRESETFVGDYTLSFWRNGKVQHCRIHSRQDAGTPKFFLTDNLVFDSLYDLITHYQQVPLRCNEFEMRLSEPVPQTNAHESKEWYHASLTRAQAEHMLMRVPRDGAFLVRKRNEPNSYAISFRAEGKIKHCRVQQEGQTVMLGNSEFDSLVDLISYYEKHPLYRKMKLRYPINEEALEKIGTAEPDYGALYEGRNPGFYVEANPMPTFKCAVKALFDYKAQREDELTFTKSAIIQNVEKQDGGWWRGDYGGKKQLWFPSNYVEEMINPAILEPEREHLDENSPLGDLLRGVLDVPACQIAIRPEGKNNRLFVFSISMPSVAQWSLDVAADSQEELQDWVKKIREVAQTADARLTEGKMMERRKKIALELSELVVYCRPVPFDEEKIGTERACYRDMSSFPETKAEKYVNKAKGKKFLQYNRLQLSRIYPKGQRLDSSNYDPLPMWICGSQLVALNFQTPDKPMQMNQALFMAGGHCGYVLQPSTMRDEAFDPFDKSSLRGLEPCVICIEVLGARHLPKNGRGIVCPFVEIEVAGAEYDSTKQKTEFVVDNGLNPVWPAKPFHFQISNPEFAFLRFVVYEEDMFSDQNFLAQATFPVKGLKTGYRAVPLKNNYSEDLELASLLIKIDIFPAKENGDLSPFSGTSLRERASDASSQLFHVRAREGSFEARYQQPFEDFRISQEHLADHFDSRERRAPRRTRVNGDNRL
protocol: Inhibition of PLCgamma1 phosphorylation in DNP-BSA-stimulated rat RBL2H3 cells by Western blotting
Format: cell-based
condition: RBL-2H3
Active and inactive are the calls of the source. The calls are words filed in the database; no cut-off is given here.
Write down the outcome that applies. Available outcomes: active, inactive

These recorded examples may help you get a feel for the data.
molecule: O=C(/C=C/c1ccccc1)Oc1cc(O)c2c(=O)cc(-c3ccccc3)oc2c1
class: inactive
//
molecule: O=C(O[C@@H]1Cc2c(O)cc(O)cc2O[C@@H]1c1cc(O)c(O)c(O)c1)c1cc(O)c(O)c(O)c1
class: inactive

Exam item: So what was the verdict on `O=c1cc(-c2ccccc2)oc2cc(O)cc(O)c12` in this test?
Marked response: inactive

Exam item: So what was the verdict on `O=C(/C=C/c1ccc(O)cc1)OC[C@H]1O[C@@H](Oc2c(-c3ccc(O)cc3)oc3cc(O)cc(O)c3c2=O)[C@H](O)[C@@H](O)[C@@H]1O` in this test?
Marked response: inactive

Exam item: So what was the verdict on `O=c1c(O)c(-c2ccc(O)cc2)oc2cc(O)cc(O)c12` in this test?
Marked response: active
